Target: T1, extracellular domain of human receptor β-Klotho with a C-terminal Poly-His tag (human, UniProt Q86Z14 1-996)
T1 construct: extracellular domain; Immobilised on an NTA chip at 1,000 RU; also called human β-Klotho protein; KLB; not shown: Poly-His tag at the C-terminus
T1 sequence (looked up): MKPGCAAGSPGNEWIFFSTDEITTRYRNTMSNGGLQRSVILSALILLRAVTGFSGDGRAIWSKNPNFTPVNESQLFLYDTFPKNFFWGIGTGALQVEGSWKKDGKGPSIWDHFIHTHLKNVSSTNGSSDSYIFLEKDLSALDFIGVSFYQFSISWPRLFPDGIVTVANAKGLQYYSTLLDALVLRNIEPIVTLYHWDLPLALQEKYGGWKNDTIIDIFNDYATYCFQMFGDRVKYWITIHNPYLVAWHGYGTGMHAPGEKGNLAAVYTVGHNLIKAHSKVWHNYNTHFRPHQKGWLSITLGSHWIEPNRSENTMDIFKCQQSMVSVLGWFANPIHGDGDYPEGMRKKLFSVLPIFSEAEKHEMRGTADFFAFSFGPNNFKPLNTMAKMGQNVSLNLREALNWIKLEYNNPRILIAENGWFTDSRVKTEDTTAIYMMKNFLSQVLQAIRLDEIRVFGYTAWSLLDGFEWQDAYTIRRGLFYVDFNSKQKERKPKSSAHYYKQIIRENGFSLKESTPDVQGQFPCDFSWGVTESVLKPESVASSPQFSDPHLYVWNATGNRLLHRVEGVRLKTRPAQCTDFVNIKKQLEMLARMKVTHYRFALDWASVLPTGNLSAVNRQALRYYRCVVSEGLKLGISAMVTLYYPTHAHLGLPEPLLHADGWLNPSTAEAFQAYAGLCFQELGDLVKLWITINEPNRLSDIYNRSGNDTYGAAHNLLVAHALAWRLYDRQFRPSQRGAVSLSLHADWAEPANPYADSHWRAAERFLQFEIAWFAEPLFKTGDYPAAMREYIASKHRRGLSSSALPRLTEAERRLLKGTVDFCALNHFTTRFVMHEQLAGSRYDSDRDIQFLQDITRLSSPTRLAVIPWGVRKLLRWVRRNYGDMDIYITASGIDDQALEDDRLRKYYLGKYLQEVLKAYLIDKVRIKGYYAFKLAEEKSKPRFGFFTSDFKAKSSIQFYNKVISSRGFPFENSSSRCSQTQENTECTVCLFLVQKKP
Experiment: SPR, Biacore-8K; His-tagged β-Klotho ECD on NTA chip, FGF21 mutant as analyte, kinetic fit
Can you tell me Kd for the items I'm about to list?
Give your result in nM as a bare value.

Input: Looking for the measured Kd of FGF21 (Del-P171) mutant 1408 (ligand) HPIPDSSPLLQFGGQVRQRYLYTDDAQQTEAHLEIREDGTVGGAADQSPESLLQLKALKPGVIQILGVKTSRFLCQRPDGALYGSLHFDPEACSFRELLLEDGYNVYQSEAHGLPLHLPGQKSPHRDPAPRGPARFLPLPGLPPALPEPPGILAPQPPDVGSSDPLSLVGSQGRSPSYAS , can you help?
Output: 67.5

Input: Please look up its Kd: FGF21 (170C/Ins-172A/173C) mutant 1412 (ligand, disulfide bond introduced between 170C and 173C, A small number of incorrect dimers is reported) HPIPDSSPLLQFGGQVRQRYLYTDDAQQTEAHLEIREDGTVGGAADQSPESLLQLKALKPGVIQILGVKTSRFLCQRPDGALYGSLHFDPEACSFRELLLEDGYNVYQSEAHGLPLHLPGQKSPHRDPAPRGPARFLPLPGLPPALPEPPGILAPQPPDVGSSDPLSLVCPACQGRSPSYAS
Output: 69.9

Input: Can you look up the measured Kd of FGF21 (170C/Ins-172S/173C) mutant 1413 (ligand, disulfide bond introduced between 170C and 173C, A small number of incorrect dimers is reported) HPIPDSSPLLQFGGQVRQRYLYTDDAQQTEAHLEIREDGTVGGAADQSPESLLQLKALKPGVIQILGVKTSRFLCQRPDGALYGSLHFDPEACSFRELLLEDGYNVYQSEAHGLPLHLPGQKSPHRDPAPRGPARFLPLPGLPPALPEPPGILAPQPPDVGSSDPLSLVCPSCQGRSPSYAS for me?
Output: 64.6

Numbers sourced from patent US20240376168A1.
